# Assay overview: NCI Yeast Anticancer Drug Screen. Data for the rad52 strain (AID 147);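 also: 0% = growth of vehicle-treated control cultures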
# Conditions: S. cerevisiae rad52 mutant growth inhibition; at 1.2 µM
The panel holds about 79,000 compounds, 15% with a hit somewhere; the sample as a whole holds those more often. Activity calls are given as the source filed them. Rule as the data show it: active = growth inhibition above about 70%; inactive = the rest.
Labels: 1 (yes) (active), 0 (no) (inactive)

S=C(Nc1ccc(Cl)c(Cl)c1)SCc1ccc2c(c1)OCO2 ... 0 (no)
Brc1ccc(-c2cc3c(cc2C2SCCS2)OCO3)cc1 ... 0 (no)
C[CH2][Sn]([CH2]C)([O]C(=O)C(OC(C)=O)c1ccccc1)[O]C(=O)C(OC(C)=O)c1ccccc1 (stereo not given) ... 0 (no)
Cc1ccc(S/N=C\c2ccccc2O)cc1 ... 0 (no)
O=C1c2cc([N+](=O)[O-])ccc2-c2cccc(F)c21 ... 0 (no)
CCCCCCCCCCCCCCC(C(=O)[O-])[n+]1ccccc1 (stereo not given) ... 0 (no)
O=C(NNc1ccnc2cc(Cl)ccc12)/C(=C\c1ccccc1Cl)NC(=O)c1ccccc1 ... 0 (no)
C[S+](C)C1(c2ccccc2)C(=O)c2ccccc2C1=O ... 0 (no)
Cc1ccc(Nc2nc3c(=O)n(C)c(=O)n(C)c3nc2Nc2ccc(C)cc2)cc1 ... 0 (no)
COC1C=COC2(C)Oc3c(C)c(O)c4c(c3C2=O)/C(=N/C2CCC(O)OC2C)C=C(NC(=O)/C(C)=C\C(=O)C2CC2C(O)C(C)C(O)C(C)C(OC(C)=O)C1C)C4=O (stereo not given) ... 0 (no)
Oc1ccc2ccccc2c1C(c1ccc(Cl)cc1)c1c(O)ccc2ccccc12 ... 0 (no)
O=[N+]([O-])c1ccc2nc3ccccc3cc2c1 ... 0 (no)
CN1CCc2ccccc2C1Cc1ccccc1NC(=O)c1sc2ccccc2c1Cl (stereo not given) ... 0 (no)
Cc1cc(I)ccc1N ... 0 (no)
CC(Br)C(=O)c1ccc2cc(Br)c3ccccc3c2c1 (stereo not given) ... 0 (no)
CCCCCCCCCCCCCCCCCCNC ... 0 (no)
O=[n+]1c2ccc(Cl)cc2n([O-])c2ccc(Cl)cc21 ... 0 (no)
CC(=O)SCCC[Si](C)(C)CCCSC(C)=O ... 0 (no)
O=C(CCCN1CCC(O)(c2ccc(Cl)cc2)CC1)c1ccc(F)cc1 ... 0 (no)
CCCCCCCCCCC1CCC(=O)O1 (stereo not given) ... 0 (no)
c1ccc2c(c1)C(=NCCCN1CCCCCC1)c1cccn1-2 ... 0 (no)
C[Si](C)(C)CNC(=O)OCc1ccccc1 ... 0 (no)
Cc1cccc2c(C(O)CBr)cc(-c3ccc(Cl)cc3)nc12 (stereo not given) ... 0 (no)
COC(=O)C1=C(C)NC(C)=C(C(=O)OCCCN2CCC(c3ccccc3)(c3ccccc3)CC2)C1c1cccc([N+](=O)[O-])c1 (stereo not given) ... 0 (no)
COc1ccc(/C(C)=N/OC(=O)c2c(-c3ccccc3Cl)noc2C)cc1CN1CCOCC1 ... 0 (no)
OC(c1ccc(F)cc1)(c1ccc(F)cc1)C1CC1 ... 0 (no)
CN(C)c1ccc(C(C#N)=C(C#N)C#N)cc1 ... 0 (no)
Cc1c(C2=C(Br)C(=O)N(C)C2=O)c(=O)n(C)c(=O)n1C ... 0 (no)
NC(=NCc1ccccc1)N/N=C\c1ccnc2ccccc12 ... 0 (no)
CC(=O)Nc1ccc(/C=C(\C#N)c2ccc(C)cc2)cc1 ... 0 (no)
Cn1ccnc1Oc1ccc(Cl)cc1 ... 0 (no)
Fc1ccc(NC(=S)SCc2ccc(Cl)c(Cl)c2)cc1F ... 0 (no)
S=C(N/N=C/c1ccccn1)Nc1ccc(Cl)cc1 ... 0 (no)
Oc1c(Br)cc(Br)cc1C1CCCCC1 ... 0 (no)
O=[N+]([O-])c1ccc2c(c1)C(N1CCN(CCO)CC1)Cc1ccc(F)cc1S2 (stereo not given) ... 0 (no)
CC(=O)Cc1ccc[cH-]1.[Fe+2].c1cc[cH-]c1 ... 0 (no)
O=C1c2ccccc2C(=O)c2c(NC3CCCCC3)ccc(Nc3ccc(S(=O)(=O)O)cc3)c21 ... 0 (no)
CC(=O)OC1CCC2(C)C(=CCC3C4CCC5(OC6CC(C)CN(C(C)=O)C6C5C)C(C)=C4C(=O)C32)C1 (stereo not given) ... 0 (no)
O=C(CC(=O)n1nc(-c2ccccc2)c(N=Nc2ccccc2C(=O)O)c1-c1ccccc1)Nc1ccc(Cl)cc1 ... 0 (no)
CCOC(=O)c1cnc2cc(C(F)(F)F)ccc2c1N=[N+]=[N-] ... 0 (no)
COP(=O)(OC)/C(=C\C1=CN(C(c2ccccc2)(c2ccccc2)c2ccccc2)CN1)NC=O ... 0 (no)
CC1=NN(c2cccc(Cl)c2)C(=O)C1 ... 0 (no)
COc1cc2c(cc1[N+](=O)[O-])C(=O)C(Br)(Br)CCC2 ... 0 (no)
C/C(=N\O)C1CC2C=C(C#N)C1N(Cc1ccccc1)C2 (stereo not given) ... 0 (no)
O=[N+]([O-])c1cccc([N+](=O)[O-])c1S(=O)(=O)c1ccccc1 ... 1 (yes)

* * *

growth inhibition values for the compounds below.
# Assay overview: NCI Yeast Anticancer Drug Screen. Data for the CLN2oe strain (AID 163);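 also: 0% = growth of vehicle-only control cultures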
# Conditions: S. cerevisiae CLN2oe strain, at 1.2 µM, stronger effect = higher value
About 79,000 compounds went through this panel and 15% of them were active in at least one assay; those are over-represented in the sample as a whole.
Parameter measured: growth inhibition (%)

Oc1c(Br)cc(Br)cc1C1CCCCC1 ... 22
C[S+](C)C1(c2ccccc2)C(=O)c2ccccc2C1=O ... 1
CCCCN1C(=O)N(c2ccc(OCC)cc2)C2N(CCCC)C1C(C)(C)C2(C)C (stereo not given) ... -10
COc1ccccc1C(=O)OCC1CCCN2CCCCC12 (stereo not given) ... 8
Clc1cccc(C(Nc2nncs2)Nc2nncs2)c1Cl ... -1
CC1OCC2OC(C)OC(C3C4=C(CC(C)(C)CC4=O)OC4=C3C(=O)CC(C)(C)C4)C2O1 (stereo not given) ... -2
O=[n+]1c2ccc(Cl)cc2n([O-])c2ccc(Cl)cc21 ... -1
Cc1c(C(=O)C(=O)c2ccccc2)c(C)c(C(=O)C(=O)c2ccccc2)c(C)c1C(=O)C(=O)c1ccccc1 ... 1
CNC1C(OC2C(OC3C(O)C(O)C(N=C(N)N)C(O)C3N=C(N)N)OC(C)C2(O)CO)OC(CO)C(O)C1O (stereo not given) ... -7
COc1ccc(N=C2C(=O)Nc3ccc(Br)cc32)cc1 ... -7

* * *

# Assay overview: NCI Yeast Anticancer Drug Screen. Data for the CLN2oe strain (AID 163);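 also: 0% = growth of vehicle-only control cultures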
# Conditions: S. cerevisiae CLN2oe strain, at 11.0 µM, stronger effect = higher value
About 79,000 compounds went through this panel and 15% of them were active in at least one assay; those are over-represented in the sample as a whole.
growth inhibition values for the molecules below.
Parameter measured: growth inhibition (%)

O=c1c2ccccc2ncn1COCc1ccccc1 ... -12
O=C(Nc1ccccc1)C(=O)C(C(=O)c1ccccc1)C(c1ccccc1)c1ccccc1 (stereo unspecified) ... 6
Clc1ccc(SC(/C=C/NNC2=NC(c3ccccc3)C(c3ccccc3)=NN2)c2ccccc2)cc1 (stereo unspecified) ... -4
c1ccc(-c2nc3cccnc3s2)cc1 ... 0
CC(O)C(O)C(O)C(/C=N\Nc1ccccc1)=N/Nc1ccccc1 (stereo unspecified) ... -5
Cc1ccc(N)c(S)c1 ... 13
CNC(=O)OCc1c(COC(=O)NC)c(-c2ccc(Cl)c(Cl)c2)n2c1CCC2 ... -13
Cc1ccc2[nH]c3c(C)c4cc[n+](C)cc4c(C)c3c2c1 ... 36
COc1ccc(C2c3cc4c(cc3OC(C)(O)C2C)OCO4)c(OC)c1 (stereo unspecified) ... -2
OCC1OC(OCC(O)C(O)C(O)C(/C=N/Nc2ccccc2)=N/Nc2ccccc2)C(O)C(O)C1O (stereo unspecified) ... 10
Cc1ccc(CCC2=CCCc3c2ccc2ccccc32)cc1 ... -9

* * *

# Assay overview: NCI Yeast Anticancer Drug Screen. Data for the bub3 strain (AID 167)
# Conditions: S. cerevisiae bub3 mutant strain, at 5.0 µM (retest, dose inferred, filed as 0.5), stronger effect = higher value
This is part of a sample that, as a whole, favours compounds with a hit. Of some 79,000 tested, about 15% had one in any assay. Active and inactive are the calls of the source. Rule as the data show it: active = growth inhibition above about 70%; inactive = the rest.
growth inhibition values for the compounds below.
Parameter measured: growth inhibition

Cc1ccc2ccc(O)cc2c1 ... 4% (inactive)
N#CN=Nc1cc(Cl)c(N=NC#N)cc1Cl ... -1% (inactive)
CCCCCCCCCCC(=O)Cl ... 16% (inactive)
COc1ccc(/C=C/C(=O)C(C)(C)Br)cc1 ... 26% (inactive)
COc1cccc2nc3ccccc3nc12 ... -25% (inactive)
O=[N+]([O-])c1ccc2nc3ccccc3cc2c1 ... -51% (inactive)
N#CN1C2CCC1CC(=O)C2 ... 39% (inactive)
O=C(O)c1cccc(-c2c3ccc(=O)cc-3oc3cc(O)ccc23)c1 ... 53% (inactive)
COc1cc(CC2CC(c3ccc4c(c3)OCO4)OC2=O)cc(OC)c1OC (stereo not drawn) ... 24% (inactive)
CC(C)(Br)C(=O)/C=C/c1ccc(Cl)c(Cl)c1 ... 7% (inactive)
O=c1ssc2ncccc12 ... 23% (inactive)
O=[N+]([O-])c1cccc2nc3ccccc3c(NCCCN3CCOCC3)c12 ... 0% (inactive)
O=C1Nc2ccc(Cl)c(I)c2C1=O ... -23% (inactive)
